Data origin: ChEMBL document CHEMBL1143091

System: Aspergillus fumigatus
Assay: Antimicrobial activity against Aspergillus fumigatus isolates
Format: functional
PROPERTY_LABEL: MIC

Quick one: MIC for CCC(C)n1ncn(-c2ccc(N3CCN(c4ccc(OC[C@H]5CO[C@](Cn6cncn6)(c6ccc(Cl)cc6Cl)O5)cc4)CC3)cc2)c1=O (some centres not stated) ? 1 µg/mL

Quick one: MIC of `C[C@@H]1[C@H](O)[C@@H](C)/C=C/C=C/C=C/C=C/C=C/C=C/C=C/[C@H](O[C@@H]2O[C@H](C)[C@@H](O)[C@H](N)[C@@H]2O)C[C@@H]2O[C@](O)(C[C@@H](O)C[C@@H](O)[C@H](O)CC[C@@H](O)C[C@@H](O)CC(=O)O[C@H]1C)C[C@H](O)[C@H]2C(=O)O` ? 16 µg/mL

State the recorded MIC for this entry: OCCNCc1ccc(-c2ccc(OCC(O)(Cn3cncn3)c3ccc(F)cc3F)cc2)cc1 (configuration not stated) > 64 µg/mL

Any idea what MIC was measured for CC(C)NCc1ccc(-c2ccc(OCC(O)(Cn3cncn3)c3ccc(F)cc3F)cc2)cc1 (configuration not stated) ? > 64 µg/mL

Bench note: what MIC did CN(Cc1ccc(-c2ccc(OCC(O)(Cn3cncn3)c3ccc(F)cc3F)cc2)cc1)c1ccccc1 (configuration not stated) show? > 64 µg/mL

Record request: MIC value, item O=C(CN1CCNCC1)Nc1ccc(-c2ccc(OCC(O)(Cn3cncn3)c3ccc(F)cc3F)cc2)cn1 (configuration not stated) > 64 µg/mL

Any idea what its MIC is? The compound is CCN(CC)Cc1ccc(C(=O)Nc2ccc(-c3ccc(OCC(O)(Cn4cncn4)c4ccc(F)cc4F)cc3)cn2)cc1 (configuration not stated) > 64 µg/mL
